test readout: IC50 (nM)
Field format: number, assumed nM, no unit text.

Task item: Quote Cell division cycle 7-related protein kinase (Homo sapiens, UniProt O00311) IC50 for entry CC(C)C(=O)Nc1nccc(-c2cc3c([nH]2)CCNC3=O)n1 .
Reply: 1400

Task item: Report value: IC50, system: Cell division cycle 7-related protein kinase (Homo sapiens, UniProt O00311), compound: O=C1NCCc2c1cc(-c1ccncc1)n2CCO
Sequence (O00311 whole entry): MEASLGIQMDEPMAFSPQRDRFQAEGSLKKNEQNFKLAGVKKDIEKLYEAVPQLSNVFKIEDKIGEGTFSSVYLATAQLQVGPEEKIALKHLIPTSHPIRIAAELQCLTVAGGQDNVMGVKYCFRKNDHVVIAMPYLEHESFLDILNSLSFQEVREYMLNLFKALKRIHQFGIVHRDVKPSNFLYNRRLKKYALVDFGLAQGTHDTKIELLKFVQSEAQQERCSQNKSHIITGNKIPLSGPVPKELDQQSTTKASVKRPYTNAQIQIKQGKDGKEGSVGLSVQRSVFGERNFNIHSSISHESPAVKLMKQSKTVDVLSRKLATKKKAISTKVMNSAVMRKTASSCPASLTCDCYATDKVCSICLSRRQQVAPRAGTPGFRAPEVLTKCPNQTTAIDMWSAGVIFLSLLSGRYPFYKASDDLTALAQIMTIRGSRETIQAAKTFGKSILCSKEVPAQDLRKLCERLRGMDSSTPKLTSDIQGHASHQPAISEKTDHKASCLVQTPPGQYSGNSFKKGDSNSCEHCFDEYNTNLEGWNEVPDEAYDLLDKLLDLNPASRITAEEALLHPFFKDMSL
Reply: 3300

Task item: Fetch value of IC50 on Cell division cycle 7-related protein kinase (Homo sapiens, UniProt O00311) for CC(C)CNc1nccc(-c2cc3c([nH]2)CCNC3=O)n1 .
Reply: 636

Task item: Tell me IC50 of CCCn1c(-c2ccnc(N)n2)cc2c1CCNC2=O when tested on Cell division cycle 7-related protein kinase (Homo sapiens, UniProt O00311).
Reply: 12

Task item: Print Cell division cycle 7-related protein kinase (Homo sapiens, UniProt O00311) IC50 for O=C1NCCc2[nH]c3c(ccc4cnccc43)c21 .
Reply: 2

Task item: Provide IC50, recorded with Cell division cycle 7-related protein kinase (Homo sapiens, UniProt O00311), of O=C1NCCc2[nH]c(-c3ccncn3)cc21
Reply: 20

Task item: Send back Cell division cycle 7-related protein kinase (Homo sapiens, UniProt O00311) IC50 of Nc1nccc(-c2cc3c(n2CCF)CCNC3=O)n1 only.
Reply: 3

Task item: State recorded IC50 with Cell division cycle 7-related protein kinase (Homo sapiens, UniProt O00311), entry Nc1ncc(Br)c(-c2cc3c([nH]2)CCNC3=O)n1 , no comment.
Reply: 4

Task item: For Cell division cycle 7-related protein kinase (Homo sapiens, UniProt O00311), give IC50 of the listed compound: O=C1NCCc2[nH]c(-c3ncnc4[nH]cnc34)cc21
Reply: 178

----------
For each of the molecules below, state its pIC50.
Quick note: pIC50 values are minus log10 of concentrations in mol/L.

Task item: Specify the recorded pIC50 for O=C1NCCc2oc(-c3ccncc3)cc21 , system: Cell division cycle 7-related protein kinase (Homo sapiens, UniProt O00311).
Reply: 6.70

Task item: Write down measured pIC50 (Cell division cycle 7-related protein kinase (Homo sapiens, UniProt O00311)) for this molecule. O=C1NCCc2c1cc(-c1ccncc1)n2CC(F)(F)F
Reply: 6.80

Task item: Please tell me the measured pIC50 for Cn1c(-c2ccnc(N)n2)cc2c1CCNC2=O ; system: Cell division cycle 7-related protein kinase (Homo sapiens, UniProt O00311).
Reply: 7.06

Task item: Specify the recorded pIC50 for Nc1nccc(-c2cc3c(n2Cc2ccccc2)CCNC3=O)n1 , system: Cell division cycle 7-related protein kinase (Homo sapiens, UniProt O00311).
Reply: 6.54

Task item: State recorded pIC50 with Cell division cycle 7-related protein kinase (Homo sapiens, UniProt O00311), entry O=C1NCCCc2[nH]c(-c3ccncc3)cc21 , no comment.
Reply: 6.80

Task item: # lookup: Cell division cycle 7-related protein kinase (Homo sapiens, UniProt O00311) pIC50, key = Nc1nccc(-c2cc3c(n2C2CCC2)CCNC3=O)n1
Reply: 7.85

Task item: Check Cell division cycle 7-related protein kinase (Homo sapiens, UniProt O00311) data and give pIC50 for Nc1nccc(-c2cc3c([nH]2)CCNC3=O)n1 .
Reply: 8.15

Task item: Provide measured pIC50 on Cell division cycle 7-related protein kinase (Homo sapiens, UniProt O00311) for CCn1c(-c2ccncc2)cc2c1CCNC2=O please.
Reply: 7.17

Task item: Print Cell division cycle 7-related protein kinase (Homo sapiens, UniProt O00311) pIC50 for Nc1nccc(-c2cc3c(n2CCO)CCNC3=O)n1 .
Reply: 6.86

Task item: Please indicate recorded pIC50 of CCCCn1c(-c2ccnc(N)n2)cc2c1CCNC2=O measured with Cell division cycle 7-related protein kinase (Homo sapiens, UniProt O00311).
Reply: 7.64

Task item: Write down measured pIC50 (Cell division cycle 7-related protein kinase (Homo sapiens, UniProt O00311)) for this molecule. Cn1c(-c2ccncc2)cc2c1CCNC2=O
Reply: 6.39

----------
Please respond with reported pIC50 for every item in the list.
# target entity: UniProt:O00311
pIC50: −log10 of the molar value.

Task item: Specify measured pIC50 for Nc1nccc(-c2cc3c(n2-c2ccccc2)CCNC3=O)n1 .
Reply: < 5.30

Task item: Indicate the recorded pIC50 value for this molecule: O=C1NCCc2[nH]c(-c3ccccc3)cc21
Reply: < 5.30

Task item: Given the molecule O=C1NCCc2[nH]ccc21 , write its reported pIC50.
Reply: < 5.30
